// endpoint Ki / system UniProt P30543
Sequence (P30543 whole entry): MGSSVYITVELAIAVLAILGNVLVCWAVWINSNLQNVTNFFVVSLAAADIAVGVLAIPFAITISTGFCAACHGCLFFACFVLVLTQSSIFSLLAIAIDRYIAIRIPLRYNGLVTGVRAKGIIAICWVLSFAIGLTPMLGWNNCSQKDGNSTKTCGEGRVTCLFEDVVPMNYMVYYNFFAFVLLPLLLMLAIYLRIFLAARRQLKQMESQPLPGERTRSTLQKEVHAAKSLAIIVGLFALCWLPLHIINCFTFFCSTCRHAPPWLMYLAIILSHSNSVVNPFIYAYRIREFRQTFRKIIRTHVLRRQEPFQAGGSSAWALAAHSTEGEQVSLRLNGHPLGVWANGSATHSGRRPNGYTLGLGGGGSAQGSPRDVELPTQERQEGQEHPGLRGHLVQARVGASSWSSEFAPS

Reference set, count: 3
# compound, Ki
rows = [
    ("Nc1ncnc2c1ncn2[C@@H]1O[C@H](COP(=O)(O)O)[C@@H](O)[C@H]1O [adenosine 5 -monophosphate]", "> 10 µM"),
    ("O=c1[nH]c(=O)c2[nH]c(Cl)nc2[nH]1", "> 10 µM"),
    ("O=c1[nH]c(=O)c2ncn(C3OC(COP(=O)(O)O)C(O)C3O)c2[nH]1 (centres undefined)", "> 10 µM"),
]

Please state Ki for every compound in the list that follows.
1. Nc1ncnc2c1ncn2[C@@]1(CO)O[C@H](CO)[C@@H](O)[C@H]1O
2. Nc1nc2c(ncn2[C@H]2O[C@@H](COP(=O)(O)O)[C@H](O)[C@@H]2O)c(=O)[nH]1
3. C[S+](CC[C@H](N)C(=O)[O-])C[C@H]1O[C@@H](n2cnc3c(N)ncnc32)[C@H](O)[C@@H]1O (some centres undefined)

OUTPUT:
1. > 10 µM
2. 85.1 µM
3. 2.78 µM

Items follow; give Ki for each.
1. Nc1nc(S)c2ncn(C3OC(CO)C(O)C3O)c2n1 (centres undefined)
2. Nc1ncnc2c1ncn2[C@H]1C[C@H](O)[C@@H](CO)O1
3. Cn1cnc2c(=O)[nH]c(=O)n(C)c21

OUTPUT:
["> 10 µM", "> 10 µM", "> 10 µM"]

Data provenance: BindingDB's records for PubMed 8022403
